# Test system: MV4-11
# Protocol: Cytotoxicity towards MV4-11 cell line
# Type: cell-based
# Condition details: Homo sapiens
pIC50: −log10 of the molar value.
Observable: pIC50

- Compound: "CC(C)(O)C#Cc1cc(C(=O)NCCCc2cn[nH]c2)ccc1-n1cccn1"
  Study system: "MV4-11"
  Experimental value: "5.00 to 5.30"
- Compound: "O=C(NCCCn1ccnc1)c1ccc(-n2cccn2)c(C#Cc2cccc(F)c2)c1"
  Study system: "MV4-11"
  Experimental value: "> 6.00"
- Compound: "O=C(NCCN1CCCC1=O)c1ccc(-n2cccn2)c(C#Cc2ccccc2)c1"
  Study system: "MV4-11"
  Experimental value: "< 4.70"
- Compound: "Cn1nnnc1SCCNC(=O)c1ccc(-n2cccn2)c(C#Cc2cccnc2)c1"
  Study system: "MV4-11"
  Experimental value: "< 4.70"
- Compound: "O=C(NCCCn1ccnc1)c1ccc(-n2cccn2)c(C#Cc2cccc(Cl)c2)c1"
  Study system: "MV4-11"
  Experimental value: "> 6.00"
- Compound: "Cc1noc(CNC(=O)c2ccc(-n3cccn3)c(C#Cc3ccccc3)c2)n1"
  Study system: "MV4-11"
  Experimental value: "< 4.70"
- Compound: "O=C(NCCCn1ccnc1)c1ccc(CN2CCc3ccccc3C2)cc1"
  Study system: "MV4-11"
  Experimental value: "4.70 to 5.00"
- Compound: "O=C(NCCCc1cn[nH]c1)c1ccc(-n2cccn2)c(C#Cc2ccccc2F)c1"
  Study system: "MV4-11"
  Experimental value: "> 6.00"
- Compound: "CC1CN(c2ncc(C(=O)NCCCc3cn[nH]c3)cc2C#Cc2ccc(F)cc2)CCN1C(=O)OC(C)(C)C (stereo not shown)"
  Study system: "MV4-11"
  Experimental value: "> 6.00"
- Compound: "C[C@@H]1CN(c2ccc(C(=O)NCCCn3ccnc3)cc2C#Cc2ccc(F)cc2)C[C@H](C)O1"
  Study system: "MV4-11"
  Experimental value: "> 6.00"
- Compound: "O=C(NCCCn1ccnc1)c1ccc(-n2cccn2)c(C#Cc2ccccc2)c1"
  Study system: "MV4-11"
  Experimental value: "> 6.00"
- Compound: "CCc1nnc(NC(=O)c2ccc(-n3cccn3)c(C#Cc3ccccn3)c2)s1"
  Study system: "MV4-11"
  Experimental value: "< 4.70"
- Compound: "CN1CCN(c2ccc(C(=O)NCCCc3cn[nH]c3)cc2C#Cc2ccc(F)cc2)CC1"
  Study system: "MV4-11"
  Experimental value: "> 6.00"
- Compound: "C[C@@H]1CN(c2ccc(C(=O)N3CC[C@H](O)[C@@H](n4ccnc4)CC3)cc2C#Cc2ccc(F)cc2)C[C@H](C)O1"
  Study system: "MV4-11"
  Experimental value: "> 6.00"
- Compound: "O=C(NCCCc1cn[nH]c1)c1ccc(N2CCOCC2)c(C#Cc2ccc(F)cn2)c1"
  Study system: "MV4-11"
  Experimental value: "> 6.00"
- Compound: "COc1cccc(C#Cc2cc(C(=O)NCCCn3ccnc3)ccc2-n2cccn2)c1"
  Study system: "MV4-11"
  Experimental value: "> 6.00"
- Compound: "Cn1ccnc1C(C)(O)CC1CCCN1C(=O)c1ccc(-n2cccn2)c(C#Cc2ccccc2)c1 (stereo not shown)"
  Study system: "MV4-11"
  Experimental value: "< 4.70"
- Compound: "CN(C)c1cccc(C#Cc2cc(C(=O)NCCCc3cn[nH]c3)ccc2-n2cccn2)n1"
  Study system: "MV4-11"
  Experimental value: "> 6.00"
- Compound: "Cn1cnnc1C1CCN(C(=O)c2ccc(-n3cccn3)c(C#Cc3ccccc3)c2)C1 (stereo not shown)"
  Study system: "MV4-11"
  Experimental value: "< 4.70"
- Compound: "Cc1cc(C)n(CCNC(=O)c2ccc(-n3cccn3)c(C#Cc3ccccc3)c2)n1"
  Study system: "MV4-11"
  Experimental value: "4.70 to 5.00"
- Compound: "O=C(Nc1ccc(Cn2ccnc2)cc1)c1ccc(-n2cccn2)c(C#Cc2ccccc2)c1"
  Study system: "MV4-11"
  Experimental value: "5.00 to 5.30"
- Compound: "O=C(NCCCN1CCCC1=O)c1ccc(-n2cccn2)c(C#Cc2cccnc2)c1"
  Study system: "MV4-11"
  Experimental value: "< 4.70"
- Compound: "O=C(NCCCn1ccnc1)c1cccc(Br)c1"
  Study system: "MV4-11"
  Experimental value: "< 4.70"
- Compound: "O=C(NCCCN1CCOCC1)c1ccc(-n2cccn2)c(C#Cc2cccnc2)c1"
  Study system: "MV4-11"
  Experimental value: "< 4.70"
- Compound: "C[C@@H]1CN(c2ccc(C(=O)N[C@@H]3CC[C@@H](n4ccnc4)[C@@H]3O)cc2C#Cc2ccc(F)cc2)C[C@H](C)O1"
  Study system: "MV4-11"
  Experimental value: "> 6.00"
- Compound: "Cc1cc(CN(C)C(=O)c2ccc(-n3cccn3)c(C#Cc3ccccc3)c2)no1"
  Study system: "MV4-11"
  Experimental value: "4.70 to 5.00"
- Compound: "O=C(NCCCc1cn[nH]c1)c1ccc(-n2cccn2)c(C#Cc2cccc(N3CCCC3)n2)c1"
  Study system: "MV4-11"
  Experimental value: "> 6.00"
- Compound: "O=C(NCCCc1cn[nH]c1)c1ccc(N2CCC3(CCCCC3)C2)c(C#Cc2ccc(F)cc2)c1"
  Study system: "MV4-11"
  Experimental value: "> 6.00"
- Compound: "O=C1CN(c2ncc(C(=O)NCCCc3cn[nH]c3)cc2C#Cc2ccc(F)cc2)CCN1"
  Study system: "MV4-11"
  Experimental value: "> 6.00"
- Compound: "O=C(NCCc1nccs1)c1ccc(-n2cccn2)c(C#Cc2ccccc2)c1"
  Study system: "MV4-11"
  Experimental value: "< 4.70"
- Compound: "O=C(NCCCc1cn[nH]c1)c1ccc(Oc2ccccc2)c(C#Cc2ccccc2)c1"
  Study system: "MV4-11"
  Experimental value: "> 6.00"
- Compound: "O=C(NCCCn1ccnc1)c1cc(C#Cc2ccccc2)c2nccn2c1"
  Study system: "MV4-11"
  Experimental value: "4.70 to 5.00"
- Compound: "O=C(NCCCn1ccnc1)c1ccc(-n2cccn2)c(C#Cc2cccc(C(F)(F)F)c2)c1"
  Study system: "MV4-11"
  Experimental value: "> 6.00"
- Compound: "Cc1nccn1CCCNC(=O)c1ccc(-n2cccn2)c(C#Cc2ccccc2)c1"
  Study system: "MV4-11"
  Experimental value: "5.30 to 6.00"

* * *

# System: U-937
# Protocol: Cytotoxicity towards U-937 cell line
# Assay type: cell-based
# Condition details: Homo sapiens
Observable: IC50

- Input smiles: "O=C(NCCCn1ccnc1)c1ccc(-n2cccn2)c(C#Cc2ccccc2F)c1"
  Observable: "IC50"
  Experimental value: "< 1000 nM"
- Input smiles: "Cn1ccnc1CNC(=O)c1ccc(-n2cccn2)c(C#Cc2ccccc2)c1"
  Observable: "IC50"
  Experimental value: "< 1000 nM"
- Input smiles: "O=C(NCCCn1ccnc1)c1cc(C#Cc2ccccc2)c2nccn2c1"
  Observable: "IC50"
  Experimental value: "10000 to 20000 nM"
- Input smiles: "O=C(NCCCCn1ccnc1)c1ccc(-n2cccn2)c(C#Cc2ccccc2)c1"
  Observable: "IC50"
  Experimental value: "< 1000 nM"
- Input smiles: "O=C(NCCCn1ccnc1)c1ccc(-n2cccn2)c(C#Cc2ccccc2)c1"
  Observable: "IC50"
  Experimental value: "< 1000 nM"

* * *

# Tested on: U-937
# Protocol: Cytotoxicity towards U-937 cell line
# Type: cell-based
# Condition details: Homo sapiens
pIC50: −log10 of the molar value.
We begin with a simple list: items and their reported pIC50.

- Compound: "O=C(NCCCc1cn[nH]c1)c1ccc(-n2cccn2)c(C#Cc2ccc(F)cc2)c1"
  pIC50: "> 6.00"
- Compound: "O=C(NCCCn1ccnc1)c1ccc(-n2cccn2)c(CCc2ccccc2)c1"
  pIC50: "5.00 to 5.30"
- Compound: "O=C(NCCCc1cn[nH]c1)c1ccc(-n2cccn2)c(C#Cc2ccccc2C(F)(F)F)c1"
  pIC50: "> 6.00"
- Compound: "Cn1cc(CCCNC(=O)c2ccc(-n3cccn3)c(C#Cc3ccc(F)cc3)c2)cn1"
  pIC50: "> 6.00"
- Compound: "O=C(NCCCn1ccnc1)c1ccc(-n2cccn2)c(C#Cc2cccc(F)c2)c1"
  pIC50: "> 6.00"
- Compound: "O=C(c1ccc(-n2cccn2)c(C#Cc2ccccc2)c1)N1CCCC(Cn2ccnc2)C1 (stereo not drawn)"
  pIC50: "4.70 to 5.00"
- Compound: "O=C(NCCCc1cn[nH]c1)c1ccc(-n2cccn2)c(C#Cc2ccc(Cl)cc2)c1"
  pIC50: "> 6.00"
- Compound: "Cc1ccc(C#Cc2cc(C(=O)NCCCc3cn[nH]c3)ccc2-n2cccn2)cc1"
  pIC50: "> 6.00"
- Compound: "O=C(NCCCc1cn[nH]c1)c1ccc(-n2cccn2)c(C#Cc2ccccc2Cl)c1"
  pIC50: "> 6.00"
- Compound: "O=C(NCCCc1cn[nH]c1)c1ccc(-n2cccn2)c(C#Cc2ccc3nccn3c2)c1"
  pIC50: "> 6.00"
- Compound: "Cc1nccn1-c1ccc(C(=O)NCCCc2cn[nH]c2)cc1C#Cc1ccc(F)cc1"
  pIC50: "> 6.00"
- Compound: "O=C(NCCCc1cn[nH]c1)c1ccc(-n2cccn2)c(C#Cc2ccccc2)c1"
  pIC50: "> 6.00"
- Compound: "O=C(NCCCc1cn[nH]c1)c1ccc(-n2cccn2)c(C#Cc2cccnc2)c1"
  pIC50: "> 6.00"
- Compound: "O=C(NCCCn1ccnc1)c1ccc(Oc2ccccc2)c(C#Cc2ccccc2)c1"
  pIC50: "> 6.00"
- Compound: "Cn1nnnc1SCCNC(=O)c1ccc(-n2cccn2)c(C#Cc2cccnc2)c1"
  pIC50: "5.00 to 5.30"
- Compound: "O=C(NCCCc1cn[nH]c1)c1ccc(N2CCCCC2)c(C#Cc2ccc(F)cc2)c1"
  pIC50: "> 6.00"
- Compound: "Cc1cccc(C#Cc2cc(C(=O)NCCCn3ccnc3)ccc2-n2cccn2)c1"
  pIC50: "> 6.00"
- Compound: "Cc1nonc1CN(C)C(=O)c1ccc(-n2cccn2)c(C#Cc2ccccc2)c1"
  pIC50: "5.30 to 6.00"
